Target: T1, Anti-CD28 Fab (SEQ ID NOs: 202, 203)
T1 construct: biotinylated and captured on neutravidin coated plates in the phage ELISA
T1 sequence (VH, as listed by the source, chain 1 of 2): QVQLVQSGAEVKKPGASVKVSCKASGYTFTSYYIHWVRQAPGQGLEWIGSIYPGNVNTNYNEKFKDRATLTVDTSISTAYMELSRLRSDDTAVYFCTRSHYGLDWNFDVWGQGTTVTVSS
T1 sequence (VL, as listed by the source, chain 2 of 2): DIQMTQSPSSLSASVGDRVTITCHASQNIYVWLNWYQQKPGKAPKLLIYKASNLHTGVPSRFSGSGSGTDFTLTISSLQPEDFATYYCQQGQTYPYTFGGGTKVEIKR
Experiment: phage binding ELISA, Fab on plate;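 also: clonal phage supernatant ELISA, wells preincubated with CD28 antigen or blocking buffer only, then bound phage detected using HRP-linked anti-M13 antibody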
# key: entry, value: Anti-CD28 Fab (SEQ ID NOs: 202, 203) signal

> print(dat)
                        binder  obs.value
1  WCAAGATWPWPLCI [Phage-1042]        1.7
2  LCSAGATYPWPWCM [Phage-1058]       1.64
3  MCTAGATYPWPACL [Phage-1084]       1.56

-- ask Dear colleague, I am looking for the recorded Anti-CD28 Fab (SEQ ID NOs: 202, 203) signal of the following binder: LCKPGVPYQWPTCL [Phage-1018]
-- reply 1.78
